Examples of compounds with documented pEC50 follow.
target: K-Ras G12D (Homo sapiens, UniProt P01116, G12D); construct: AGS (Cobioer, CBP60476) cell lines which harbor KRAS G12D mutation; host or cells: AGS; assay: p-ERK Cellular 2-Plate Assay (Biological Example 2); format: cell-based; conditions: AGS cells (KRAS G12D), 3 h treatment, AlphaLISA p-ERK1/2, 2-plate; Biological Example 2 (unmarked values); read-out: AGS PERK EC50
Sequence (P01116 1-188 isoform P01116-2 G12D): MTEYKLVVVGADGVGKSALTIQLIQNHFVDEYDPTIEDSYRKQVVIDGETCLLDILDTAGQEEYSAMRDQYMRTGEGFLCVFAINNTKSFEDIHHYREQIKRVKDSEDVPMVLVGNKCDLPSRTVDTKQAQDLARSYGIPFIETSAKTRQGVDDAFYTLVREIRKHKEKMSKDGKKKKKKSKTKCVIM
When answering, recall that pEC50 equals minus log10 of the concentration in mol/L, and write that number alone.

Can you share its pEC50? I mean this compound: C#Cc1cccc2cc(O)cc(-c3ncc4c(N5C[C@H]6CC[C@@H](C5)N6)nc(OCC56CCCN5c5ccccc5C6)nc4c3F)c12 (some centres unmarked) [Example 5]
6.49

Can you handle C#Cc1cccc2cc(O)cc(-c3ncc4c(N5C[C@H]6CC[C@@H](C5)N6)nc(OCC56CCCN5Cc5c(COC)cccc56)nc4c3F)c12 (some centres unmarked) [Example 33] next?
8.85

What about C=C1CN2CCCC2(COc2nc(N3C[C@H]4CC[C@@H](C3)N4)c3cnc(-c4cc(O)cc5cccc(F)c45)c(F)c3n2)C1 (some centres unmarked) [Example 22] ?
9.00

Try this compound too: C#Cc1cccc2cc(O)cc(-c3ncc4c(N5CC6CCC(C5)N6)nc(OCC56CCCN5Cc5cnccc56)nc4c3F)c12 (centres unmarked) [Example 31]
8.39

Another: C#Cc1cccc2cc(O)cc(-c3ncc4c(N5CC6CCC(C5)N6)nc(OCC56CCCN5Cc5cc(F)ccc56)nc4c3F)c12 (centres unmarked) [Example 25]
8.52

Repeat with C#Cc1cccc2cc(O)cc(-c3ncc4c(N5CC6CCC(C5)N6)nc(OC[C@]56CCCN5[C@H]5c7ccnn7CC5C6)nc4c3F)c12 (mixture of isomers) [Example 37]
8.18

Can you handle C#Cc1cccc2cc(O)cc(-c3ncc4c(N5C[C@H]6CC[C@@H](C5)N6)nc(OCC56CCCN5CC(=C)C6)nc4c3F)c12 (some centres unmarked) [Example 1] next?
9.70

Try C#Cc1cccc2cc(O)cc(-c3ncc4c(N5CC6CCC(C5)N6)nc(OCC56CCCN5Cc5ccncc56)nc4c3F)c12 (centres unmarked) [Example 32] next.
8.22

Repeat with C#Cc1cccc2cc(O)cc(-c3ncc4c(N5CC6CCC(C5)N6)nc(OCC56CCCN5Cc5ccc(F)cc56)nc4c3F)c12 (centres unmarked) [Example 26]
8.15
